test system: Mycobacterium tuberculosis; test: Antimycobacterial activity against Mycobacterium tuberculosis H37Rv by agar dilution method; assay type: functional
For each of the compounds below, state its MIC.
// units = µM; emit number, no label

Problem: Could you tell me which MIC is on file for COc1ccc(CC2C3=C(CCCC3)CCN2c2nc3c(cc2[N+](=O)[O-])c(=O)c(C(=O)O)cn3C(C)(C)C)cc1 (centres undefined) ?
Solution: 5.73

Problem: Let us now turn to O=C(O)c1cn(C2CC2)c2nc(N3CCC4(CC3)OCCO4)c([N+](=O)[O-])cc2c1=O
Solution: 7.52

Problem: Let us now turn to CN1CCN(c2nc3c(cc2[N+](=O)[O-])c(=O)c(C(=O)O)cn3C(C)(C)C)CC1c1ccccc1 (centres undefined)
Solution: 0.84

Problem: Let us now turn to CC(C)(C)n1cc(C(=O)O)c(=O)c2cc([N+](=O)[O-])c(N3CCN(C(=O)c4ccco4)CC3)nc21
Solution: 3.32

----------
For each of the compounds below, state its MIC.
system: Mycobacterium tuberculosis; assay: Antimycobacterial activity against Mycobacterium tuberculosis H37Rv by agar dilution method; assay type: functional

Problem: Could you tell me which MIC is on file for CC(C)(C)n1cc(C(=O)O)c(=O)c2cc([N+](=O)[O-])c(N3CCSCC3)nc21 ?
Solution: 0.99 µM

Problem: Let us now turn to CC1CN(c2nc3c(cc2[N+](=O)[O-])c(=O)c(C(=O)O)cn3C(C)(C)C)CC(C)O1 (stereo not given)
Solution: 7.74 µM

Problem: Let us now turn to O=C(O)c1cn(C2CC2)c2nc(N3CCC(n4c(=O)[nH]c5cc(Cl)ccc54)CC3)c([N+](=O)[O-])cc2c1=O
Solution: 2.97 µM

Problem: Let us now turn to O=C(O)c1cn(-c2ccc(F)cc2)c2nc(N3CCC4(CC3)OCCO4)c([N+](=O)[O-])cc2c1=O
Solution: 6.65 µM

Problem: Let us now turn to CN1CCN(c2nc3c(cc2[N+](=O)[O-])c(=O)c(C(=O)O)cn3-c2ccc(F)cc2)CC1c1ccccc1 (stereo not given)
Solution: 0.77 µM

----------
tested on: Mycolicibacterium smegmatis; assay: Antimicrobial activity against Mycobacterium smegmatis by agar dilution method; assay type: functional
property-measured: log10 MIC (log10 of the value in µM)
Kindly note that the scale is log10 and the underlying MIC is in µM.

Problem: Checklist item: log10 MIC tested on Mycolicibacterium smegmatis, entry O=C(O)c1cn(C2CC2)c2nc(N3CCSCC3)c([N+](=O)[O-])cc2c1=O , value?
Solution: 1.52

Problem: Let us now turn to CC(C)(C)NC(=O)C1c2ccccc2CCN1c1nc2c(cc1[N+](=O)[O-])c(=O)c(C(=O)O)cn2C1CC1 (stereo not drawn)
Solution: 1.39

Problem: Let us now turn to COc1c(N2CCNC(C)C2)c(F)cc2c(=O)c(C(=O)O)cn(C3CC3)c12 (stereo not drawn)
Solution: 0.32

Problem: Let us now turn to O=C(O)c1cn(C2CC2)c2nc(N3CCN(C(c4ccccc4)c4ccc(Cl)cc4)CC3)c([N+](=O)[O-])cc2c1=O (stereo not drawn)
Solution: 1.35

Problem: Let us now turn to O=C(O)c1cn2c(n1)CN(c1nc3c(cc1[N+](=O)[O-])c(=O)c(C(=O)O)cn3-c1ccc(F)cc1)CC2
Solution: 0.20

Problem: Let us now turn to O=C(O)c1cn2c(n1)CN(c1nc3c(cc1[N+](=O)[O-])c(=O)c(C(=O)O)cn3C1CC1)CC2
Solution: 1.45

Problem: Let us now turn to O=C(O)c1cn(-c2ccc(F)cc2)c2nc(N3CCC4(CC3)OCCO4)c([N+](=O)[O-])cc2c1=O
Solution: 1.42

Problem: Let us now turn to CC1(C)COCN1c1nc2c(cc1[N+](=O)[O-])c(=O)c(C(=O)O)cn2C(C)(C)C
Solution: 0.60

Problem: Let us now turn to COc1ccc(CC2C3=C(CCCC3)CCN2c2nc3c(cc2[N+](=O)[O-])c(=O)c(C(=O)O)cn3-c2ccc(F)cc2)cc1 (stereo not drawn)
Solution: 1.93

Problem: Let us now turn to O=C(O)c1cn(C2CC2)c2nc(N3CCN(C(=O)c4ccco4)CC3)c([N+](=O)[O-])cc2c1=O
Solution: 1.44

Problem: Let us now turn to CCN(CC)C(=O)C1CCCN(c2nc3c(cc2[N+](=O)[O-])c(=O)c(C(=O)O)cn3C(C)(C)C)C1 (stereo not drawn)
Solution: 2.03

Problem: Let us now turn to CN1CCN(c2nc3c(cc2[N+](=O)[O-])c(=O)c(C(=O)O)cn3C(C)(C)C)CC1c1ccccc1 (stereo not drawn)
Solution: 1.13

Problem: Let us now turn to O=C(O)c1cn(C2CC2)c2nc(N3CCN(Cc4ccc5c(c4)OCO5)CC3)c([N+](=O)[O-])cc2c1=O
Solution: 1.40
